biological target: MerTK (Homo sapiens, UniProt Q12866); construct: Seed HUVECs (10K cells/well) in EBM-2 complete media; assay: PAKT HTRF-HUVEC assay (pAkt Ser473 HTRF after anti-human MerTK-XL stimulation); conditions: HUVEC cells, 1 hour compound, stimulated with anti-human MerTK-XL 1 ug/mL for 10 minutes, read-out: inhibition of MerTK
Sequence (Q12866 21-999): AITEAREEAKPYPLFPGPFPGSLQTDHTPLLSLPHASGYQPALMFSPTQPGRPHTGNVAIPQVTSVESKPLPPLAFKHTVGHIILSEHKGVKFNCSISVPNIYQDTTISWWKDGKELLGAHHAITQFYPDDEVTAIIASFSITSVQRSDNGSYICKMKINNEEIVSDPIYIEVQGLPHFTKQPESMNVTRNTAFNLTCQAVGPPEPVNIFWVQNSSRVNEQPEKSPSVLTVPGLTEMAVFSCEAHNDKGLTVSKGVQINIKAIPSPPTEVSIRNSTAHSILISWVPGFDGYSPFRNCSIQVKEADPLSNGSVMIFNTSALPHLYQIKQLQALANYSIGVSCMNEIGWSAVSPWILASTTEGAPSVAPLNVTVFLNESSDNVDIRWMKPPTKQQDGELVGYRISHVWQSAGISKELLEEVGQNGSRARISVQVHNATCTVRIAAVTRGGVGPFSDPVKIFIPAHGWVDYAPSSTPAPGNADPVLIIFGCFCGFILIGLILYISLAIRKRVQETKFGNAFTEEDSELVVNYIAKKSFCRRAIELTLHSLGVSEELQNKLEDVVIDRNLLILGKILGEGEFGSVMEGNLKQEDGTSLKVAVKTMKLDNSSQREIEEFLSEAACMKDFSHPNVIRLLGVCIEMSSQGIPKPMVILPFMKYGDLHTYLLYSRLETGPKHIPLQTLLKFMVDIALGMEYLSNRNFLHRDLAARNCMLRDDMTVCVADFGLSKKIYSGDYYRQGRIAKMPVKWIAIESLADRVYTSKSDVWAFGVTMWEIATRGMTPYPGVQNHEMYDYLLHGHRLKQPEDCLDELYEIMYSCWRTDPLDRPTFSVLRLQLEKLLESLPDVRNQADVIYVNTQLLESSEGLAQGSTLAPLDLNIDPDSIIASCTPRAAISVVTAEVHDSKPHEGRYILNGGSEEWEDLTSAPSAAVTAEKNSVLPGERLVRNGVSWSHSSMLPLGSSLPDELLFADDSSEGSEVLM
API: label(entry) gives satisfied if the entry's EC50 is strictly smaller than 100 nM; on equality or larger values it gives not satisfied.

Worked set:
compound	label-class
CN1CCN(Cc2ccc3c(c2)c(=O)n(C2CCC(C)(C)CC2)c2nc(NCC4CCC4)ncc32)CC1 [Compound 146]	satisfied
O=c1c2cc(N3CCC(N4CCCC4)CC3)ccc2c2cnc(NCC3CC3)nc2n1[C@H]1CC[C@H](O)CC1 [Compound 158]	satisfied
CCCCNc1ncc2c3ccc(CN4CCN(C)CC4)cc3c(=O)n([C@H]3CC[C@@](C)(O)CC3)c2n1 [Compound 17]	satisfied
CN1CCN(Cc2ccc3c(c2)c(=O)n([C@H]2CC[C@H](C(N)=O)CC2)c2nc(NCC4CC4)ncc32)CC1 [Compound 134]	not satisfied
O=c1c2cc(N3CCNCC3)ccc2c2cnc(NCC3CC3)nc2n1[C@H]1CC[C@H](O)CC1 [Compound 108]	not satisfied

Task item: Item CCC[C@H](C)Nc1ncc2c3ccc(CN4CCN(C(C)(C)C)CC4)cc3c(=O)n([C@H]3CC[C@H](O)CC3)c2n1 [Compound 215] : EC50 beneath 100 nM, strictly?
Reply: satisfied

###

biological target: MerTK (Homo sapiens, UniProt Q12866); construct: Seed HUVECs (10K cells/well) in EBM-2 complete media; experiment: PAKT HTRF-HUVEC assay (pAkt Ser473 HTRF after anti-human MerTK-XL stimulation); details: HUVEC cells, 1 hour compound, stimulated with anti-human MerTK-XL 1 ug/mL for 10 minutes, read-out: inhibition of MerTK
Entries and their pEC50 values follow.
Value format note: pEC50 is -log10 of concentration (mol/L); just state the number.

Examples with answers:
compound	assay-target	pEC50
CN1CCN(Cc2ccc3c(c2)c(=O)n([C@H]2CC[C@](C)(O)CC2)c2nc(NCCC4CC4)ncc32)CC1	MerTK (Homo sapiens, UniProt Q12866)	8.21
C[C@]1(O)CC[C@H](n2c(=O)c3ccccc3c3cnc(NCCC4CC4)nc32)CC1	MerTK (Homo sapiens, UniProt Q12866)	6.78
O=c1c2cc(N3CCN4CCC[C@H]4C3)ccc2c2cnc(NCC3CC3)nc2n1[C@H]1CC[C@H](O)CC1	MerTK (Homo sapiens, UniProt Q12866)	6.91
CCCCNc1ncc2c3ccc(CN4CCN(C)CC4)cc3c(=O)n([C@H]3CC[C@H](C(N)=O)CC3)c2n1	MerTK (Homo sapiens, UniProt Q12866)	7.26
CN1CCN(Cc2ccc3c(c2)c(=O)n([C@H]2CC[C@](C)(O)CC2)c2nc(NCC4CCC4)ncc32)CC1	MerTK (Homo sapiens, UniProt Q12866)	8.13

Task item: Would you kindly share the measured pEC50 for CC1(O)CCC(n2c(=O)c3ccccc3c3cnc(NCC4CC4)nc32)CC1 (centres unmarked) ?
Reply: 6.21

Task item: Returns the measured pEC50 for the input compound. Input: `CCC(F)(F)CNc1ncc2c3ccc(CN4CCN(C)CC4)cc3c(=O)n([C@H]3CC[C@H](O)CC3)c2n1`
Reply: 6.66

Task item: Could you tell me which pEC50 is on file for O=c1c2cc(N3CCN(C4COC4)CC3)ccc2c2cnc(NCC3CC3)nc2n1[C@H]1CC[C@H](O)CC1 [Compound 111] ?
Reply: 6.42

Task item: Give its pEC50 value. Item: CCCCNc1ncc2c3ccc(CN4CCN(C)CC4)cc3c(=O)n(CC3CCC(O)CC3)c2n1 (centres unmarked)
Reply: 5.69

Task item: Recorded pEC50 of `CCCCNc1ncc2c3ccc(CN4CCN(C)CC4)cc3c(=O)n([C@H]3CC[C@H](C(=O)NC)CC3)c2n1` , please.
Reply: 7.16

Task item: Fill in: pEC50 of `O=c1c2ccccc2c2cnc(NCC3CCC3)nc2n1[C@H]1CC[C@H](O)CC1` is ___
Reply: 6.49

Task item: Given the entry CC1(O)CCC(n2c(=O)c3cc(CN4CCN(C5COC5)CC4)ccc3c3cnc(NCC4CC4)nc32)CC1 (centres unmarked) , report its measured pEC50.
Reply: 7.77

Task item: Which pEC50 reading was recorded for the compound `O=c1c2cc(CN3CCC(c4ccncc4)CC3)ccc2c2cnc(NC3CCC3)nc2n1[C@H]1CC[C@H](O)CC1` ?
Reply: 8.62

Task item: // returns reported pEC50 for input `CC(C)Nc1ncc2c3ccc(CN4CCN(C)CC4)cc3c(=O)n([C@H]3CC[C@H](O)CC3)c2n1`
Reply: 7.14

Task item: Any idea what its pEC50 is? The compound is `C[C@@H]1CN(Cc2ccc3c(c2)c(=O)n([C@H]2CC[C@H](O)CC2)c2nc(NCC4CC4)ncc32)CCN1C`
Reply: 7.44

Task item: What value of measured pEC50 is listed for CCOC(=O)C1CCN(Cc2ccc3c(c2)c(=O)n(C2CCC(O)CC2)c2nc(NCC4CC4)ncc32)CC1 (centres unmarked) ?
Reply: 7.59

Task item: So what's the measured pEC50 for this one? CCOC1CCN(Cc2ccc3c(c2)c(=O)n(C2CCC(O)CC2)c2nc(NCC4CC4)ncc32)CC1 (centres unmarked)
Reply: 7.24

###

target: MerTK (Homo sapiens, UniProt Q12866); construct: Seed HUVECs (10K cells/well) in EBM-2 complete media; assay: PAKT HTRF-HUVEC assay (pAkt Ser473 HTRF after anti-human MerTK-XL stimulation); conditions: HUVEC cells, 1 hour compound, stimulated with anti-human MerTK-XL 1 ug/mL for 10 minutes, read-out: inhibition of MerTK
Label key: 1 (yes) means EC50 under 100 nM; 0 (no) means EC50 of 100 nM or more.

Record excerpt, results attached:
compound	label-class
CN1CCN(Cc2ccc3c(c2)c(=O)n(C2CCNCC2)c2nc(NCC4CC4)ncc32)CC1	0 (no)
O=c1c2cc(CC3CCNCC3)ccc2c2cnc(NCC3CC3)nc2n1[C@H]1CC[C@H](O)CC1	0 (no)
O=c1c2cc(CN3CCC(O)(c4ccncc4)CC3)ccc2c2cnc(NCC3CC3)nc2n1[C@H]1CC[C@H](O)CC1	1 (yes)
NC(=O)C1CCN(Cc2ccc3c(c2)c(=O)n([C@H]2CC[C@H](O)CC2)c2nc(NCC4CC4)ncc32)CC1	0 (no)
O=c1c2cc(CN3CCC4(CC3)COC4)ccc2c2cnc(NC3CCC3)nc2n1[C@H]1CC[C@H](O)CC1	1 (yes)

Task item: Here's an entry: O=c1c2cc(N3CCn4ncnc4C3)ccc2c2cnc(NCC3CC3)nc2n1[C@H]1CC[C@H](O)CC1 [Compound 101] . Is its EC50 below 100 nM?
Reply: 0 (no)

Task item: Does the reported EC50 of the following compound sit strictly below 100 nM? `CN1CCN(Cc2ccc3c(c2)c(=O)n([C@H]2CC[C@H](O)CC2)c2nc(NC4CC(F)(F)C4)ncc32)CC1`
Reply: 0 (no)

Task item: Criterion: EC50 strictly below 100 nM. Is it met by O=c1c2cc(CN3CCN4CCC3CC4)ccc2c2cnc(NCC3CC3)nc2n1[C@H]1CC[C@H](O)CC1 [Compound 179] ?
Reply: 0 (no)

Task item: Given the entry O=c1c2cc(CN3CCSCC3)ccc2c2cnc(NCC3CC3)nc2n1[C@H]1CC[C@H](O)CC1 [Compound 53] , would its reported EC50 be below 100 nM?
Reply: 1 (yes)

###

pEC50 for assorted molecules
biological target: MerTK (Homo sapiens); construct: Seed HUVECs (10K cells/well) in EBM-2 complete media; test: PAKT HTRF-HUVEC assay (pAkt Ser473 HTRF after anti-human MerTK-XL stimulation); details: HUVEC cells, 1 hour compound, stimulated with anti-human MerTK-XL 1 ug/mL for 10 minutes, read-out: inhibition of MerTK
Hey, just a heads up that pEC50 is the negative log base 10 of the concentration in molar.

molecule	pEC50
CCCCNc1ncc2c3ccc(N4CCN5CCC4CC5)cc3c(=O)n([C@H]3CC[C@H](O)CC3)c2n1 [Compound 81]	7.86
CCC(F)(F)CNc1ncc2c3ccc(CN4CCC5(CC4)COC5)cc3c(=O)n([C@H]3CC[C@H](O)CC3)c2n1 [Compound 197]	7.01
O=c1c2cc(CN3CCOCC3)ccc2c2cnc(NCC3CC3)nc2n1[C@H]1CC[C@H](O)CC1 [Compound 155]	6.83
CC(C)N1CCN(Cc2ccc3c(c2)c(=O)n([C@H]2CC[C@H](O)CC2)c2nc(NCC4CC4)ncc32)CC1 [Compound 30]	7.74
O=c1c2cc(CN3CCN(CC(F)(F)F)CC3)ccc2c2cnc(NCC3CC3)nc2n1[C@H]1CC[C@H](O)CC1 [Compound 40]	7.29
CCCCNc1ncc2c3ccc(N4CCC(N5CCCC5)CC4)cc3c(=O)n([C@H]3CC[C@H](O)CC3)c2n1 [Compound 71]	7.48
O=c1c2cc(CN3CCN(c4ccncc4)CC3)ccc2c2cnc(NCC3CCC3)nc2n1[C@H]1CC[C@H](O)CC1 [Compound 220]	7.95
CCCCNc1ncc2c3ccc(CN4CCN(C)CC4)cc3c(=O)n([C@H]3CC[C@H](NCC(N)=O)C3)c2n1 [Compound 237]	6.66
O=c1c2cc(CN3CCN(c4ccncc4)CC3)ccc2c2cnc(NCC3CC3)nc2n1[C@H]1CC[C@H](O)CC1 [Compound 124]	7.44
CN1CCN(Cc2ccc3c(c2)c(=O)n([C@H]2CC[C@H](NC(=O)CC#N)CC2)c2nc(NCC4CC4)ncc32)CC1 [Compound 190]	7.14

Task item: Return reported pEC50; argument: CN1CCN(c2ccc3c(c2)c(=O)n([C@H]2CC[C@H](O)CC2)c2nc(NC4CC(F)(F)C4)ncc32)CC1 [Compound 85]
Reply: 6.66
